biological target: Bifunctional dihydrofolate reductase-thymidylate synthase (Toxoplasma gondii, UniProt Q07422); assay: Inhibitory activity against dihydrofolate reductase DHFR in Toxoplasma gondii.
Sequence (Q07422 whole entry): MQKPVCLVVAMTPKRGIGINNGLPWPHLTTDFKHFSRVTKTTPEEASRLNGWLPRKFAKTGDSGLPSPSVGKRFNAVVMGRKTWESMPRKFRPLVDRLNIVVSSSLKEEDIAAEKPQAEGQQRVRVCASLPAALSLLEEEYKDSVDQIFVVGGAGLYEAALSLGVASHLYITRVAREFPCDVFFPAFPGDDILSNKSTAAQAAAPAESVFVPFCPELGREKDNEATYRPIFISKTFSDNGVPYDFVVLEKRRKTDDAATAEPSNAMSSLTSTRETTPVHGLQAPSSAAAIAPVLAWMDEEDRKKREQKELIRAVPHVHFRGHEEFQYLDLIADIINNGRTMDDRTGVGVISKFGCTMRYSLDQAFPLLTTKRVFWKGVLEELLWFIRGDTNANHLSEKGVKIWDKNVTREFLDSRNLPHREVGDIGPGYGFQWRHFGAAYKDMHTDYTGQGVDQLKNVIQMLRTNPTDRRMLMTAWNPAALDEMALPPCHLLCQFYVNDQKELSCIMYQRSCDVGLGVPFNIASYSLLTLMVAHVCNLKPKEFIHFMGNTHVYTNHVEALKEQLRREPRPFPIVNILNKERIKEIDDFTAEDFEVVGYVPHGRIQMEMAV
For each entry below, report its log10 of IC50 value.
Plainly stated, the numbers are log10 of IC50 given in nM.

List the reported log10 of IC50 of each compound below.
1. CCc1nc(N)nc(N)c1-c1ccc(Cl)c(/N=N/N(CCOC(C)=O)Cc2cc(OC)c(OC)c(OC)c2)c1
2. CCc1nc(N)nc(N)c1-c1ccc(Cl)c(/N=N/N(CCOC(C)=O)Cc2ccc(Cl)cc2)c1
3. CCc1nc(N)nc(N)c1-c1ccc(Cl)c(/N=N/N(CCOC(C)=O)Cc2ccc3ccccc3c2)c1
4. CCc1nc(N)nc(N)c1-c1ccc(Cl)c(/N=N/N(CCO)CCc2ccccc2)c1
5. CCc1nc(N)nc(N)c1-c1ccc(Cl)c(/N=N/N(CCO)[C@@H](C)c2ccccc2)c1
6. CCc1nc(N)nc(N)c1-c1ccc(Cl)c(/N=N/N(CCOC(C)=O)Cc2cc(OC)cc(OC)c2)c1
7. CCc1nc(N)nc(N)c1-c1ccc(Cl)c(/N=N/N(CCOC(C)=O)Cc2ccccc2F)c1

1. 1.85
2. 2.90
3. 3.02
4. 3.25
5. 3.43
6. 2.58
7. 3.89

List the reported log10 of IC50 of each compound below.
1. CCc1nc(N)nc(N)c1-c1ccc(Cl)c(/N=N/N(CCOC(C)=O)Cc2ccccc2Cl)c1
2. CCC(=O)OCCN(Cc1ccccc1)/N=N/c1cc(-c2c(N)nc(N)nc2CC)ccc1Cl
3. CCc1nc(N)nc(N)c1-c1ccc(Cl)c(/N=N/N(CCOC(C)=O)Cc2ccc(F)cc2)c1
4. CCc1nc(N)nc(N)c1-c1ccc(Cl)c(/N=N/N(CCOC(C)=O)Cc2cccc([N+](=O)[O-])c2)c1

1: 3.79; 2: 2.85; 3: 3.64; 4: 2.92

List the reported log10 of IC50 of each compound below.
1. CCc1nc(N)nc(N)c1-c1ccc(Cl)c(/N=N/N(CCCO)Cc2ccccc2)c1
2. CCc1nc(N)nc(N)c1-c1ccc(Cl)c(/N=N/N(CCOC(C)=O)Cc2ccc(OC)c(OC)c2)c1

3.30
1.90

List the reported log10 of IC50 of each compound below.
1. CCc1nc(N)nc(N)c1-c1ccc(Cl)c(/N=N/N(CCO)[C@H](C)c2ccccc2)c1
2. CCc1nc(N)nc(N)c1-c1ccc(Cl)c(/N=N/N(CCOC(C)=O)Cc2cccc3ccccc23)c1
3. CCc1nc(N)nc(N)c1-c1ccc(Cl)c(/N=N/N(CCOC(C)=O)Cc2cccc(Cl)c2)c1
4. CCc1nc(N)nc(N)c1-c1ccc(Cl)c(/N=N/N(CCOC(C)=O)Cc2ccc(C)cc2)c1

[3.17, 2.30, 3.06, 2.80]

Item: CCc1nc(N)nc(N)c1-c1ccc(Cl)c(/N=N/N(CCOC(C)=O)Cc2ccc(OC)cc2)c1 | log10 of IC50: 2.64

###

experiment: Inhibition of dihydrofolate reductase DHFR in Pneumocystis carinii.
metric_name: pIC50
One number for each entry, as −log10 of the molar value.

Item: CCc1nc(N)nc(N)c1-c1ccc(Cl)c(/N=N/N(CCO)[C@H](C)c2ccccc2)c1 | pIC50: 5.96

Item: CCc1nc(N)nc(N)c1-c1ccc(Cl)c(/N=N/N(CCOC(C)=O)Cc2ccc(C(F)(F)F)cc2)c1 | pIC50: 5.87

Item: CCc1nc(N)nc(N)c1-c1ccc(Cl)c(/N=N/N(CCO)CCc2ccccc2)c1 | pIC50: 6.32

List the reported pIC50 of each compound below.
1. CCc1nc(N)nc(N)c1-c1ccc(Cl)c(/N=N/N(CCO)[C@@H](C)c2ccccc2)c1
2. CCc1nc(N)nc(N)c1-c1ccc(Cl)c(/N=N/N(CCOC(=O)c2ccccc2)Cc2ccccc2)c1
3. CCC(=O)OCCN(Cc1ccccc1)/N=N/c1cc(-c2c(N)nc(N)nc2CC)ccc1Cl
4. CCc1nc(N)nc(N)c1-c1ccc(Cl)c(/N=N/N(CCOC(C)=O)Cc2ccc(F)cc2)c1
5. CCc1nc(N)nc(N)c1-c1ccc(Cl)c(/N=N/N(CCOC(C)=O)Cc2cc(OC)c(OC)c(OC)c2)c1

1. 5.90
2. 6.07
3. 5.89
4. 5.72
5. 5.82

List the reported pIC50 of each compound below.
1. CCc1nc(N)nc(N)c1-c1ccc(Cl)c(/N=N/N(CCOC(C)=O)Cc2ccc(Cl)cc2)c1
2. CCc1nc(N)nc(N)c1-c1ccc(Cl)c(/N=N/N(CCOC(C)=O)Cc2cccc(F)c2)c1

6.03
5.65
